experiment: thallium flux activation in parental CHO cells, counter-screen for KCNQ1 potentiator project (AID 493006); details: parental CHO-K1 cells, FluxOR thallium flux, at 10 µM;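 on activation: fluorescence ratio of max minus min over baseline after K+ and Tl+ depolarization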
Activity calls are given as the source filed them.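 How the source made its calls: active means duplicate-averaged activation above buffer control mean plus 5 SD of those controls; inactive means the rest.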
Respond using exactly one of the listed classes: yes (active), no (inactive)

Solved cases below.
Cc1ccc(-c2nc3c(Cl)cc(Cl)cc3c(=O)n2O)cc1    yes
Cc1nnc(SCC(=O)N(Cc2ccccc2)C(C)C)n1-c1ccccc1    no
CCOC(=O)c1c(NC(=S)NC)sc2c1CC(C)(C)SC2    yes
Cc1cccc(C(=O)NC(=S)NNC(=O)c2cccs2)c1    yes
Cc1cccc(Nc2ccccc2C(=O)OCC(=O)N(C)C2CCS(=O)(=O)C2)c1C (stereo not drawn)    no
CC1SCC(=NOCc2c(Cl)cccc2Cl)CS1 (stereo not drawn)    no

Recorded call for Fc1ccc(SCCc2ccncc2)cc1 ?
no

Recorded call for O=C(Nc1ccc(N2CCCCC2)cc1)c1cccnc1Cl ?
no

Recorded call for CC(C)NC(=O)/C(=C/c1cn(-c2ccccc2)nc1-c1cccc([N+](=O)[O-])c1)NC(=O)c1ccccc1 ?
no

Recorded call for CSc1nccc(-c2nn(-c3ccc(C)cc3)ccc2=O)n1 ?
no

====

target: Potassium voltage-gated channel subfamily KQT member 2 (Rattus norvegicus) (UniProt O88943); experiment: rat KCNQ2 channel potentiation, selectivity assay for KCNQ1 potentiator project, KCNQ2-CHO-K1 cells (AID 493009); settings: FluxOR thallium flux fluorescence, at 10 µM, scaled: buffer 0, activator control 100;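 further: assay conditions were tuned for KCNQ1 rather than KCNQ2 modulators; signal is max minus min fluorescence divided by baseline after thallium stimulus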
Sequence (O88943 whole entry, looked up): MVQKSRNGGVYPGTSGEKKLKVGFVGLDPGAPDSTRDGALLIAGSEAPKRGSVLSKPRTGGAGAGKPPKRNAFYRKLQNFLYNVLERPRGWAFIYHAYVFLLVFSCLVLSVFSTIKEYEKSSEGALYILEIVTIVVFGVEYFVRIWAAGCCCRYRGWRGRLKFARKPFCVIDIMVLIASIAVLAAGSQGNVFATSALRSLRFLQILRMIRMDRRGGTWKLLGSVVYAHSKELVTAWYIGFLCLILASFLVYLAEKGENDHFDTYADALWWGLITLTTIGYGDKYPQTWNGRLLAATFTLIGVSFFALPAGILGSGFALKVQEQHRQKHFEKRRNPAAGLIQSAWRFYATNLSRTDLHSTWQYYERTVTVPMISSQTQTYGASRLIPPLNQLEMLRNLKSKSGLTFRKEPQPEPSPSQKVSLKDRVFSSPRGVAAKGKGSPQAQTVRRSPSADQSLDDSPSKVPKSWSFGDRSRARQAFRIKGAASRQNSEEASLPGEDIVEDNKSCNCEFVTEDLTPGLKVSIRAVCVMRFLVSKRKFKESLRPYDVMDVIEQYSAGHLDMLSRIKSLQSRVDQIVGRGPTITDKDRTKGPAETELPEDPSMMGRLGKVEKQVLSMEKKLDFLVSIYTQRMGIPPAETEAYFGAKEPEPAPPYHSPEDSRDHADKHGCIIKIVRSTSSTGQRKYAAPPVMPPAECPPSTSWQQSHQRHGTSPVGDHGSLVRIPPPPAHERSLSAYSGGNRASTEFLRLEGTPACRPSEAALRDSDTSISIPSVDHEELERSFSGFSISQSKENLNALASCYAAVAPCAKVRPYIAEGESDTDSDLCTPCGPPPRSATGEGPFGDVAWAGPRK
The source made the active and inactive calls.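 The calls were made as follows: active = mean duplicate potentiation above the buffer control mean plus 5 SD of buffer wells; inactive = the rest.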
Respond using exactly one of the listed classes: active, inactive

O=C(NC(=S)Nc1cc(C(F)(F)F)ccc1Cl)c1ccccc1    inactive
Cc1ccc2sc(N(CCCN(C)C)C(=O)CCS(=O)(=O)c3ccccc3)nc2c1C    inactive
COC(=O)c1sc(NC(=S)NC(=O)c2ccccc2)nc1C    inactive

Recorded call for CCOc1cc(CN2CCN(C(=O)CC(C)C)CC2)ccc1OC ?
inactive

====

test system: TRPC4 (mouse), co-expressed with 5HT1a in HEK293; assay: calcium flux potentiators in TRPC4/5HT1a cells, confirmation, counter-screen for TRPC4 potentiator project, cell-based, second counter screen, HEK293 TRPC4/5HT1a, Fluo-4 (AID 434979); details: Fluo-4 calcium flux, at 10 µM, serotonin added at its EC20 dose
Activity calls are given as the source filed them.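 Rule for the calls: active = signal rise over 3 SD above mean of control wells given weak agonist, in both repeats and first screen; inactive = the rest.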
Respond using exactly one of the listed classes: 1 for active, 0 for inactive

Solved cases below.
Cc1onc(-c2ccccc2)c1C(=O)NNC(=S)NC(=O)c1ccc(Br)cc1    0
OCCN1CCN(Cc2cc(Br)cc(Br)c2O)CC1    0
O=C(Cn1c(-c2ccccc2)c[n+]2ccsc12)c1ccc(Br)cc1    0
CC(C)c1ccc(NC(=S)N(C)CCc2ccccn2)cc1    0
Cc1cc(OCCCCn2ccnc2)cc(C)c1Cl    0

Recorded call for CN(C)C(CNC(=S)Nc1ccc(F)cc1)c1cccnc1 (stereo not given) ?
0

Recorded call for C=CCn1c(CCNC(=O)c2ccco2)nc2ccccc21 ?
0

Recorded call for C/C(=N/NC(=O)c1ccc(Cn2cccn2)o1)c1cccc(NC(=O)c2ccncc2)c1 ?
0

Recorded call for Cc1cccc(C(=O)NC(=S)NNC(=O)c2cccs2)c1 ?
0

Recorded call for CCOC(=O)C1=NN(C(=O)c2ccc(C)cc2)C(O)(c2ccc(Cl)cc2)C1 (stereo not given) ?
0

Recorded call for CCCOc1ccc(C(=O)NC(=S)NNC(=O)c2c(-c3ccccc3)noc2C)cc1 ?
0

Recorded call for COC(=O)[C@@]1(Cc2ccc(F)cc2)[C@H]2c3cc(C(=O)N(C)C)n(CCc4ccccn4)c3C[C@H]2CN1C(=O)c1ccccc1 ?
0

====

molecular target: Potassium voltage-gated channel subfamily KQT member 2 (Rattus norvegicus); experiment: rat KCNQ2 channel potentiation, selectivity assay for KCNQ1 potentiator project, KCNQ2-CHO-K1 cells (AID 493009); settings: FluxOR thallium flux fluorescence, at 10 µM, scaled: buffer 0, activator control 100;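 further: assay conditions were tuned for KCNQ1 rather than KCNQ2 modulators; signal is max minus min fluorescence divided by baseline after thallium stimulus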
Active and inactive are the calls of the source.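 Rule for the calls: active = mean duplicate potentiation above the buffer control mean plus 5 SD of buffer wells; inactive = the rest.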
Respond using exactly one of the listed classes: active, inactive

Fc1ccc(-c2csc(=S)[nH]2)cc1    active
CC(=O)c1c(O)cc(C)n(-c2ccc(F)cc2)c1=O    inactive
CCc1ccc(CNC(=O)CCn2nc(C)c3c(C)n(-c4ccccc4)nc3c2=O)cc1    inactive
CC(=O)c1ccc(OCc2cc(C(=O)N3CC[C@@H]4CCCC[C@H]4C3)no2)cc1    active
CCC(=O)NC(=Nc1nc2ccccc2s1)NC(=O)CC    inactive
Cc1ccc(-c2cc(-c3n[nH]c(=S)o3)c3ccccc3n2)cc1    active
Cc1cccc(/N=C/c2sc3ccccc3c2O)n1    inactive
C=CCn1c(=S)[nH]c2sc3c(c2c1=O)CCC3    active
Cc1nc(-c2ccc(NC(=O)Cc3ccccc3)cc2)cs1    inactive
O=c1cc(-c2c(F)c(F)c(F)c(F)c2F)oc2ccccc12    inactive

Kindly review the next molecule as well.
Recorded call for COc1cccc(CN(C)C(=O)c2cc(COc3ccc4ncccc4c3)on2)c1 ?
inactive

====

biological target: Potassium voltage-gated channel subfamily KQT member 1 (Homo sapiens); experiment: KCNQ1 potassium channel potentiators, confirmation, FluxOR thallium flux, CHO cells, duplicates (AID 493007); conditions: KCNQ1 cell line, FluxOR thallium flux fluorescence, at 10 µM, % of reference activator effect, buffer zero
The source made the active and inactive calls.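 The calls were made as follows: active = potentiation averaged over duplicate wells exceeding buffer-only control mean by more than 3 SD; inactive = the rest.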
Respond using exactly one of the listed classes: active, inactive

Cc1onc(-c2ccccc2)c1C(=O)NC(=S)Nc1sc2c(c1C#N)CCC(C)C2 (stereo not drawn)    active
O=c1[nH]c(Nc2ccccc2)cc2cc(Br)ccc12    inactive
Cc1ccc(-c2c(C)n([O-])c3c([n+]2=O)CCCC3)o1    inactive
CC(=O)N1N=C(c2ccccc2OC(=O)/C=C/c2ccccc2)CC1c1ccccc1 (stereo not drawn)    inactive

Kindly review the next compound as well.
Recorded call for N=C1/C(=C\c2ccc(-c3cccc(Cl)c3)o2)C(=O)N=C2SC=C(c3ccccc3)N12 ?
active

====

system: transient receptor potential cation channel C4 beta (TRPC4), mouse; test: activators of mouse TRPC4 channel, confirmation, cell-based, second round, Fluo4, HEK293 TRPC4beta/mu-opioid, 1 µM (AID 2461); settings: Fluo4 calcium fluorescence, at 1 µM
Active and inactive are the calls of the source.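 How the source made its calls: active means primary screen active and over 50% activation in each of two duplicate runs; inactive means the rest.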
Respond using exactly one of the listed classes: active, inactive

Recorded call for CC1(C)CC(=O)c2cc(C(=O)NCc3ccco3)c(=O)n(-c3ccc(Cl)cc3)c2C1 ?
inactive

Recorded call for O=C1CC(O)(C(F)(F)F)Oc2c1ccc1ccccc21 (stereo not given) ?
inactive

Recorded call for COc1ccc(C(CNC(=O)c2cccc(NS(=O)(=O)c3ccc(C)c(F)c3)c2)N(C)C)cc1 (stereo not given) ?
inactive

Recorded call for O=C(Nc1nnc(-c2ccccc2Cl)o1)c1nc2ccccc2s1 ?
inactive

Recorded call for CCN1CCN(c2ccc(S(=O)(=O)N3CCCCC3)cc2NC(=O)C(C)Oc2ccc(F)cc2)CC1 (stereo not given) ?
inactive

Recorded call for Cc1onc(-c2ccccc2)c1C(=O)NC(=S)NNC(=O)c1ccco1 ?
inactive

Recorded call for CN(C)C(CNC(=S)Nc1ccccc1)c1cccnc1 (stereo not given) ?
active

Recorded call for CCn1c(N2CCN(Cc3ccc([N+](=O)[O-])cc3)CC2)nc2ccccc21 ?
active

Recorded call for O=C(NNC(=S)NC(=O)C12CC3CC(CC(C3)C1)C2)c1ccncc1 ?
inactive

Recorded call for Cc1ccn2cc(CCNC(=O)C3CC=CCC3C(=O)O)nc2c1 (stereo not given) ?
inactive

====

target: Potassium voltage-gated channel subfamily KQT member 2 (Rattus norvegicus) (UniProt O88943); assay: rat KCNQ2 channel potentiation, selectivity assay for KCNQ1 potentiator project, KCNQ2-CHO-K1 cells (AID 493009); conditions: FluxOR thallium flux fluorescence, at 10 µM, scaled: buffer 0, activator control 100;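 further: assay conditions were tuned for KCNQ1 rather than KCNQ2 modulators; signal is max minus min fluorescence divided by baseline after thallium stimulus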
Activity calls are given as the source filed them.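 The calls were made as follows: active = mean duplicate potentiation above the buffer control mean plus 5 SD of buffer wells; inactive = the rest.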
Respond using exactly one of the listed classes: active, inactive

O=C(NC(=S)Nc1ccccn1)c1cc(-c2ccccc2)nc2ccccc12    inactive
C=CCN(CC=C)C(=S)NC(=O)c1ccc(OC)cc1    active
CC1(C)Cc2c(sc3[nH]c(=S)n(Cc4ccccc4)c(=O)c23)CO1    active
O=C(N/C(=C\c1ccc([N+](=O)[O-])cc1)C(=O)N1CCCCC1)c1ccco1    inactive
ON/C=N/C(=S)Nc1ncc(C(F)(F)F)cc1Cl    active

Kindly review the next molecule as well.
Recorded call for O=Cc1ccccc1OCCCOc1cccc2cccnc12 ?
inactive

====

assay: thallium flux activation in parental CHO cells, counter-screen for KCNQ1 potentiator project (AID 493006); settings: parental CHO-K1 cells, FluxOR thallium flux, at 10 µM;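 on activation: fluorescence ratio of max minus min over baseline after K+ and Tl+ depolarization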
Activity calls are given as the source filed them.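 The calls were made as follows: active = duplicate-averaged activation above buffer control mean plus 5 SD of those controls; inactive = the rest.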
Respond using exactly one of the listed classes: Yes (active), No (inactive)

Solved cases below.
COc1ccc(-c2csc(N(CCCN(C)C)C(=O)c3ccccc3Cl)n2)cc1    No
O=C(CSc1ccc2ccccc2n1)Nc1ccc(N2CCOCC2)cc1    No
Cc1ccccc1CS(=O)(=O)c1nnc([C@H](Cc2ccccc2)NC(=O)OC(C)(C)C)o1    No
S=c1[nH]nc(-c2cccs2)n1/N=C/c1cn(-c2ccccc2)nc1-c1ccccc1    No
CN(C(=S)NC(=O)c1ccccc1Br)C1CCCCC1    Yes
O=C(NC(=S)N(Cc1ccccc1)Cc1ccccc1)c1ccccc1F    Yes
O=C(NC(=S)N1CCCCCC1)c1ccccc1Cl    No
CCOC(=O)N/C(N)=N/c1nc2ccccc2s1    No
CCOc1cccc(/C=N/NC(=O)C2CCCC2)c1O    No
Cn1c(=O)cc(NCc2ccccc2)[nH]c1=O    No

Recorded call for O=c1[nH]c(Nc2ccccc2)cc2cc(Br)ccc12 ?
No

Recorded call for Cc1ccc(S(=O)(=O)NCC(c2ccc3c(c2)OCO3)N2CCOCC2)cc1 (stereo not drawn) ?
No

Recorded call for O=C(NC(=S)Nc1cccc(Cl)c1N1CCCCC1)c1ccco1 ?
Yes

Recorded call for Cc1[nH]n(-c2cccc3ccccc23)c(=O)c1/C=N/c1sc2c(c1C#N)CCC2 ?
Yes

Recorded call for COC(=O)c1ccc(CNC(=O)CSc2nc3sc(C)c(C)c3c(=O)n2C)o1 ?
Yes

Recorded call for Cc1ccccc1NC(=O)C(=O)NNC(=O)COc1ccc2ccccc2c1 ?
Yes

Recorded call for COc1cccc2sc(Nc3nnc(-c4ccccc4Cl)o3)nc12 ?
No
